// binding relative to negative control mIgG2 lookup, one value per entry
target: T1, human complement component C3 (human, UniProt P01024 23-667; P01024 672-1663); assay: binding screen of Example 5; method and unit not stated
T1 construct: also called human C3
T1 sequence (P01024 23-667, chain 1 of 2): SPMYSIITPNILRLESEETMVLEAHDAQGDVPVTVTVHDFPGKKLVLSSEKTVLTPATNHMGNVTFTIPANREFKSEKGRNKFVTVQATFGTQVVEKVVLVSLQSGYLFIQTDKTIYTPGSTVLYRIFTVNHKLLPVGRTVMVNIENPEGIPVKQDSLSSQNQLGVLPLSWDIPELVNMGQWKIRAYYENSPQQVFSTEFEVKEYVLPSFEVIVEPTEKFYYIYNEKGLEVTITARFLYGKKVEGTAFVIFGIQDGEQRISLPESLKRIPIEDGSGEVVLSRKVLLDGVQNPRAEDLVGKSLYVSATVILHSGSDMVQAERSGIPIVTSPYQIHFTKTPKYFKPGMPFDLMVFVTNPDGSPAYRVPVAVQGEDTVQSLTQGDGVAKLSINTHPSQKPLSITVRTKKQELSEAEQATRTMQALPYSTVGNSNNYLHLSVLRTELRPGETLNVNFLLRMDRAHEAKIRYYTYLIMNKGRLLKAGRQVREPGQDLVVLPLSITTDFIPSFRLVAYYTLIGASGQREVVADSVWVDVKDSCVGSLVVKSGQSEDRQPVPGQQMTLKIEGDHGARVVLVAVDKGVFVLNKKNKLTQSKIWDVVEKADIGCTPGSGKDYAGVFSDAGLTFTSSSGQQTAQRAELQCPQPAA
T1 sequence (P01024 672-1663, chain 2 of 2): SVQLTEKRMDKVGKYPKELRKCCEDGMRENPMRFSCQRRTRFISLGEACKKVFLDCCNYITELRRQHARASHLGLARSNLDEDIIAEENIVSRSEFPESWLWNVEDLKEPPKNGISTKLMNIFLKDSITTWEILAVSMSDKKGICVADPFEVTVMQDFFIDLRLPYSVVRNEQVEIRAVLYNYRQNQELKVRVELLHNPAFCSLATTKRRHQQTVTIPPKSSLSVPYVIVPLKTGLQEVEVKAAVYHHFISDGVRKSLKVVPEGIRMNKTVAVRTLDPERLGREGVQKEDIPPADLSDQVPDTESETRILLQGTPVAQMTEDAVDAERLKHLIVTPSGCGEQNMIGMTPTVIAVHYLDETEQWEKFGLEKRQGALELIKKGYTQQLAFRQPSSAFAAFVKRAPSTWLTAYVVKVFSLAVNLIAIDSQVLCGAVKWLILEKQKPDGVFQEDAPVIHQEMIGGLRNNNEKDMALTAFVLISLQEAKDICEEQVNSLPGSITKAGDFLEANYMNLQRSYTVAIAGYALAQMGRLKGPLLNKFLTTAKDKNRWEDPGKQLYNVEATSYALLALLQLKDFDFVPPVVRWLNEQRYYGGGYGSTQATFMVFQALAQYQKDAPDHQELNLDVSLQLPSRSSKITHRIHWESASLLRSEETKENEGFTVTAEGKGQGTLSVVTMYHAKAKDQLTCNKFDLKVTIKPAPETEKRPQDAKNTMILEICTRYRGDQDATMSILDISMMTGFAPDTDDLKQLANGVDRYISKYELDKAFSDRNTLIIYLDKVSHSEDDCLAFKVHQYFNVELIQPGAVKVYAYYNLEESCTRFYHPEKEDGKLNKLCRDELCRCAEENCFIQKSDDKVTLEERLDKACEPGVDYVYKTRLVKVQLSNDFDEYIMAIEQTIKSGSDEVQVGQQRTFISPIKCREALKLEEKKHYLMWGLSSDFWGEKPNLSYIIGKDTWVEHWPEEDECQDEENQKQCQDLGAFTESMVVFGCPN
A bare number is all that is needed in reply.

Study these solved cases before continuing.
binder	result_number
antibody 28C3 (antibody, V domains shown, Mouse hybridoma antibody) VH: QVQLQQSGPELVKPGASVKISCKASGYAFNSCWMNWVKQRPGKGLEWIGRIYPGDGDTNYNGKFKGKATLTADKSSTTAYMQLSSLTSEDSAVYFCAREGRNYGYEDYWGQGTTLTVSS VL: DIVLTQSPASLAVSLGQRATISCKASQSVDYDGDSYMNWYQQKPGQPPKLLIYAASDLESGIPARFSGSGSGTDFTLNIHPVEEEDAATYYCQQANEDPRTFGGGTKLEIK	0.66
antibody 62B11 (antibody, V domains shown, Mouse hybridoma antibody) VH: EVKLVESGGGLVQPGGSLKLSCAASGFTFSSYTMSWVRQTPEKRLEWVAYISSGGGTTYYPDTVKGRFTVSRDNAKNTLYLQMSSLRSEDTAMYSCARRYYRGSSLWYFDVWGAGTTVTVSS VL: DIVMTQSPSSLTVTAGEKVTMSCKSSQSLFNSGSQKNFLTWYQQRPGQPPKLLIYWASTRESGVPDRFTGSGSGTDFTLTISSVQAEDLAVYYCQNDYSYPLTFGAGTKLELK	0.83

Req: Please indicate binding relative to negative control mIgG2 recorded for antibody 3D8 (antibody, V domains shown, Mouse hybridoma antibody raised against human C3) VH: EIQLQQSGAELVKPGASVKISCKASGYSFTGYNMNWVKQSHGKSLEWIGNINPYYGSTNYNQKFKGKATLTVDKSSTTAYMQLDSLTSEDSAVYYCARGYYGGNYPFAYWGQGTLVTVSA VL: DIQMTQSPASLSASVGETVTITCRASENIYSYLAWYQQKQGKSPQLLVYNAKTLAEGVPSRFSGSGSGTQFSLKINSLQPEDFGSYYCQHYYGTPYTFGGGSKVEIK
Resp: 0.47

Req: Please indicate binding relative to negative control mIgG2 recorded for antibody 63A3 (antibody, V domains shown, Mouse hybridoma antibody) VH: DVQLQESGPGLVKPSQSLSLTCSVTGYSITSGYYWNWIRQFPGNKLEWMGYIRYDGSNNYNPSLKNRISITRDTSKNQVFLKLNSVTPEDTATYYCARHYGYDGGAFDFWGQGTTLTVSS VL: DIQMTQSPASLSASVGETVTITCRTSENIYNYLVWYQQKQGKSPQLLVYNAKTLEEGVPSRFSGSGSGTQFSLKVNSLQPEDFGSYYCQHHYGTPFTFGSGTKLEIK
Resp: 0.95

Req: Please indicate binding relative to negative control mIgG2 recorded for antibody 62F2 (antibody, V domains shown, Mouse hybridoma antibody) VH: DVQLQESGPDLVKPSQSLSLTCTVTGYSITSGYSLHWIRQFPGNKLEWMGYIHYSGSTNYNPSLKSRISITRDTSKNQFFLKLNSVTSEDTATYHCARAWDYLDYWGQGTTLTVSS VL: DIQMTQSPASLSASVGETVTITCRASENIYSQLAWYQQKQGKSPQLLVYDAKTLAEGVPSRFSGSGSDTQFSLKIISLQPEDFGRYYCHHHFGILYTFGGGTKLEMK
Resp: 0.7

Req: Please indicate binding relative to negative control mIgG2 recorded for antibody 3G8 (antibody, V domains shown, Mouse hybridoma antibody) VH: EIQLQQSGAELVKPGASVKISCMASGYSFTGYNMNWVKQSHGKGLEWIGNINPYYDSTSYNQKFKGKATLTVDKSSSTAYMQLNSLTSEDSAVYYCARENYDFVGFAYWGQGTLVTVSA VL: QIVLSQSPAILSASPGEKVTMTCRASSSVSYMHWFQQKPGSSPKPWIYVTSNLASGVPPRFSGSGSGTSYSLTISRVEAEDAATYYCQQWSTNPLTFGAGTKLELK
Resp: 0.37

Req: Please indicate binding relative to negative control mIgG2 recorded for antibody 38F5 (antibody, V domains shown, Mouse hybridoma antibody) VH: EVMLVESGGALVKPGGSLKLSCTASGFTFSNYAMSWVRQTPEKRLEWVAQTISSGGRYTYYPDSVKGRFTISRDNARNTLYLQMSSLRSEDTAMYYCVRRYYGNSYWYFDVWGAGTTVTVSS VL: DIVMTQSPSSLSVSAGEKVTMNCKSSQSLLNSGNQKHYLTWYQQKPGQPPKLLIYGASTRGSGVPDRFTGSGSGTDFTLTISSVQAEDLAVYYCQNDHSYPYTFGGGTKLEIK
Resp: 0.83

Req: Please indicate binding relative to negative control mIgG2 recorded for antibody 38G10 (antibody, V domains shown, Mouse hybridoma antibody; Parent of Hz38G10; also called parental 38G10 antibody) VH: EVQLQQSGPELVKPGDSVKMSCKASGYTFTDFYMDWVKQSHGKSLEWIGYIYPHNGGTTYNQNFTGKATLTVDKSSNTAYMELHSLTSEDSAVYYCARRGGFDFDYWGQGTTLTVSS VL: NIVMTQSPKSMSLSVGERVTLRCKASENVDTYVSWYQQKPEQSPKLLIYGASNRYTGVPDRFTGSGSATEFTLTISSVQAEDLVGYHCGQSHSYPLTFGAGTKLELK
Resp: 0.53

Cited source for all entries: patent US20190322730A1
